Listed next: entries and their corresponding pIC50.
# Subject Of Test: Signal transducer and activator of transcription 6 (Homo sapiens, UniProt P42226)
# Sequence (P42226 whole entry): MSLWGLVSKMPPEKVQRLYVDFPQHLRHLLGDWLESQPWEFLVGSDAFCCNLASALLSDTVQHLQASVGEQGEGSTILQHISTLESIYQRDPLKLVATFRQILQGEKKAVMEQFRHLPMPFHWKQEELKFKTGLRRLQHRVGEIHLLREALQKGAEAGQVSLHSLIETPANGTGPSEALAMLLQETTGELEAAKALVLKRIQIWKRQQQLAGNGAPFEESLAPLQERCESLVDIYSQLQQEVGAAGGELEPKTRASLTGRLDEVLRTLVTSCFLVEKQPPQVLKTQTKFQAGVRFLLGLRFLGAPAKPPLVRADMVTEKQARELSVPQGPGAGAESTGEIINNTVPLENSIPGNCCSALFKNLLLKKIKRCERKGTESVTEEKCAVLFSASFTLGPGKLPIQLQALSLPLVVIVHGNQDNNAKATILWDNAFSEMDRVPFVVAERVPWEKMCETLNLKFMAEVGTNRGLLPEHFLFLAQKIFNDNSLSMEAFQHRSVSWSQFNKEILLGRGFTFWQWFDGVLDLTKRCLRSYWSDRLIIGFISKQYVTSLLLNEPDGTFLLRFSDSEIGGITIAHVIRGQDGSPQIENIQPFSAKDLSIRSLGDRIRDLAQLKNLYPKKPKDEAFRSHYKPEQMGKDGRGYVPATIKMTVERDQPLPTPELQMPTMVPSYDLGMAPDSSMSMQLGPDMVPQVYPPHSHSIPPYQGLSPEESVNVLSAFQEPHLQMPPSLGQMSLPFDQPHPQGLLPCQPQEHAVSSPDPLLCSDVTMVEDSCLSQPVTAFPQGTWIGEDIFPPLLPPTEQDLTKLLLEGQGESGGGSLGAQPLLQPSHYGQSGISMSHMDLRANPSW
# Procedure Details: Inhibition of STAT6 activation in FW4 reporter cells
# log scale: pIC50 equals minus log10 of the concentration in mol/L

NC(=O)c1cnc(Nc2ccc(N3CCOCC3)cc2)nc1NCc1cc(F)cc(F)c1 ... 8.26
NC(=O)c1cnc(Nc2ccc(N3CCC(O)CC3)cc2)nc1NCc1ccccc1 ... 7.80
NC(=O)c1cnc(Nc2ccc(N3CCOCC3)cc2)nc1NCc1cccc(O)c1 ... 7.72

Recall the recorded pIC50 for NC(=O)c1cnc(Nc2ccc(CCCO)cc2)nc1NCc1ccccc1 with Signal transducer and activator of transcription 6 (Homo sapiens, UniProt P42226) and state it.
7.09

What pIC50 appears in the records for this molecule with Signal transducer and activator of transcription 6 (Homo sapiens, UniProt P42226)? NC(=O)c1cnc(Nc2ccc(N3CCOCC3)cc2)nc1NCc1cccc(F)c1F
8.68

---

# Procedure Details: Clearance in BALB/c mouse at 1 mg/kg, iv
# Format: ADME, organism-based
# Design: dose 1 mg/kg, route intravenous
# Assay Setup: in vivo
clearance overview
Answer with a number only, understood to be in mL/min/kg.

NC(=O)c1cnc(NCCc2cc(Cl)c(O)c(Cl)c2)nc1NCc1ccccc1 ... 168

Fill blank: measured clearance of the compound NC(=O)c1cnc(Nc2ccc(N3CCOCC3)cc2)nc1NCc1ccccc1 is ____.
59.6

---

# Procedure Details: Oral bioavailability in BALB/c mouse at 10 mg/kg
# Assay type: ADME, organism-based
# Assay Setup: in vivo
Readout Type: bioavailability (%)
Numbers only; they are read as %.

For the compound shown here, NC(=O)c1cnc(NCCc2cc(Cl)c(O)c(Cl)c2)nc1NCc1ccccc1 , give the reported bioavailability.
1
